# Experimental system: Human PDE10A enzyme (Homo sapiens, UniProt Q9Y233)
# Construct: Human PDE10A enzyme was generated from Sf9 or COS-7 cells transfected with the full-length gene; His-tag; made in house; host or cells: Sf9 or COS-7 cells
# Sequence (Q9Y233 267-1055): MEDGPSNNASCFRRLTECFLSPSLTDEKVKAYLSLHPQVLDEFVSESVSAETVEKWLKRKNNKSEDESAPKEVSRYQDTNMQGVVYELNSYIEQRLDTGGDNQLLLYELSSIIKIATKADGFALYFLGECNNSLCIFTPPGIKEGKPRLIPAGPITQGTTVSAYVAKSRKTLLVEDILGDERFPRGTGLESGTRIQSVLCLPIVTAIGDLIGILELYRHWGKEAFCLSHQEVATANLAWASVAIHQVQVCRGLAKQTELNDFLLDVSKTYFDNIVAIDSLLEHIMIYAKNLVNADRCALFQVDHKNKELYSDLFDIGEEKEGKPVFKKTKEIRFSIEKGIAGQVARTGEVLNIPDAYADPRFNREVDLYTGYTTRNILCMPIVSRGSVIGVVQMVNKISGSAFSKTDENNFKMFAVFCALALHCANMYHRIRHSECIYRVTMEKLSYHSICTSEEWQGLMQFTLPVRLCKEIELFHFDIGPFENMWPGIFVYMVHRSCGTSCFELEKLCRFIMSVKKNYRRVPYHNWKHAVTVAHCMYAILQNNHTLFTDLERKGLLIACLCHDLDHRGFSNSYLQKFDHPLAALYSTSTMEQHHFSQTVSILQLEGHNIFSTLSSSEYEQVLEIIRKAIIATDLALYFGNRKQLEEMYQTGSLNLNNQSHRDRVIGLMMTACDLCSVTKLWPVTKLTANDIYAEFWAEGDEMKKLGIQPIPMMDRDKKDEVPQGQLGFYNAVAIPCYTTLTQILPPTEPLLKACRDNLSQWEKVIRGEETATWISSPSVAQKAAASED
# Test description: PDE enzyme inhibition, SPA (Scintillation Proximity Assay)
# Assay type: biochemical
# Recorded conditions: Table 1; compound at 1 μM; read-out: Percent inhibition (1 μM)
# Protocol: Human PDE10A enzyme was generated from Sf9 or COS-7 cells transfected with the full-length gene. Cloned enzyme was extracted from homogenized cell pellets. The extracted enzyme from Sf9 cells was partially purified using His-tag affinity column. The enzyme was stored at −70° C. until use. PDE activity was measured using a SPA (Scintillation Proximity Assay) (GE Healthcare). […] Inhibition rate was calculated on the basis of 0% control wells with DMSO and 100% control wells without enzyme.
# inhibition at 1 µM per record follows
Assay endpoint: inhibition at 1 µM (%)

* CCOc1cn(-c2cccc(C(F)(F)F)c2)nc(-c2ccnn2-c2ccccc2)c1=O | 96
* COc1cn(-c2cccc(C(F)(F)F)c2)nc(-c2ccnn2-c2ccccc2)c1=O | 100
* COc1ccccc1-n1ccc(=O)c(-c2ccnn2-c2ccccc2)n1 | 96
* O=c1ccn(-c2cccc(S(=O)(=O)c3nc4ccccc4[nH]3)c2)nc1-c1ccnn1-c1ccccc1 | 98
* O=c1ccn(-c2ccccc2OC(F)F)nc1-c1ccnn1-c1ccccc1 | 97
* O=c1ccn(-c2cccc(C(F)(F)F)c2)nc1-c1ccnn1-c1ccccc1 | 98
* COc1cn(-c2ccc(N3CCOCC3)cc2F)nc(-c2ccnn2-c2ccccc2)c1=O | 101
* O=c1ccn(-c2cccc(F)c2)nc1-c1ccnn1-c1ccccc1 | 97
* O=c1ccn(-c2ccccc2F)nc1-c1ccnn1-c1ccccc1 | 97
* O=c1ccn(-c2ccc(N3CCOCC3)cc2)nc1-c1ccnn1-c1ccccc1 | 102
* COc1cn(-c2ccccc2F)nc(-c2ccnn2-c2ccccc2)c1=O | 99
* O=c1c(OC(F)F)cn(-c2ccccc2F)nc1-c1ccnn1-c1ccccc1 | 94
* NC(=O)c1ccc(-n2ccc(=O)c(-c3ccnn3-c3ccccc3)n2)cc1 | 98
* N#Cc1ccc(-n2ccc(=O)c(-c3ccnn3-c3ccccc3)n2)cc1 | 97
* O=c1ccn(-c2ccc(F)cc2)nc1-c1ccnn1-c1ccccc1 | 97
* O=c1ccn(-c2ccccc2Cl)nc1-c1ccnn1-c1ccccc1 | 89
* O=c1ccn(-c2ccc(S(=O)(=O)N3CCOCC3)cc2)nc1-c1ccnn1-c1ccccc1 | 100

----------
# Experimental system: Human PDE10A enzyme (Homo sapiens, UniProt Q9Y233)
# Construct: Human PDE10A enzyme was generated from Sf9 or COS-7 cells transfected with the full-length gene; His-tag; made in house; host or cells: Sf9 or COS-7 cells
# Test description: PDE enzyme inhibition, SPA (Scintillation Proximity Assay)
# Format: biochemical
# Recorded conditions: Table 2; compound at 0.1 μM; read-out: Percent inhibition (0.1 μM)
# inhibition at 0.1 µM per record follows
Assay endpoint: inhibition at 0.1 µM (%)

* COc1cn(-c2ccc(-n3cccn3)cc2F)nc(-c2ccnn2-c2cccc(Cl)c2)c1=O [Example 164] | 101
* COc1cn(-c2ccc(N3CC(F)(F)C(F)(F)C3)cc2F)nc(-c2ccnn2-c2ccccc2)c1=O [Example 104] | 99
* COc1cn(-c2ccc(N3CCOC3=O)cc2F)nc(-c2ccnn2-c2ccccc2)c1=O [Example 109] | 99
* COc1cn(-c2ccc(N3CC=CC3)cc2F)nc(-c2ccnn2-c2ccccc2)c1=O [Example 179] | 96
* COc1cn(-c2ccc(-n3cc(Cl)cn3)cc2F)nc(-c2ccnn2-c2ccccc2)c1=O [Example 180] | 96
* COc1cn(-c2ccc(-n3cc(F)c(F)c3)cc2F)nc(-c2ccnn2-c2ccccc2)c1=O [Example 119] | 100
* COc1cn(-c2ccc(N3CC(C)(C)OC3=O)cc2F)nc(-c2ccnn2-c2ccccc2)c1=O [Example 190] | 100

----------
# Experimental system: Human PDE10A enzyme (Homo sapiens, UniProt Q9Y233)
# Construct: Human PDE10A enzyme was generated from Sf9 or COS-7 cells transfected with the full-length gene; His-tag; made in house; host or cells: Sf9 or COS-7 cells
# Test description: PDE enzyme inhibition, SPA (Scintillation Proximity Assay)
# Assay type: biochemical
# Recorded conditions: Table 1; human PDE10A, [3H]cGMP substrate
Assay endpoint: IC50

• O=c1ccn(-c2cccnc2)nc1-c1ccnn1-c1ccccc1 = 10 to 200 nM
• NC(=O)c1ccc(-n2ccc(=O)c(-c3ccnn3-c3ccccc3)n2)cc1 = < 10 nM
• COc1ccccc1-n1ccc(=O)c(-c2ccnn2-c2ccccc2)n1 = 10 to 200 nM
• COc1cn(-c2cccc(C(F)(F)F)c2)nc(-c2ccnn2-c2ccccc2)c1=O = < 10 nM
• O=c1ccn(-c2ccc(N3CCOCC3)cc2)nc1-c1ccnn1-c1ccccc1 = < 10 nM
• CS(=O)(=O)c1cccc(-n2ccc(=O)c(-c3ccnn3-c3ccccc3)n2)c1 = < 10 nM
• O=c1ccn(-c2ccc(F)cc2)nc1-c1ccnn1-c1ccccc1 = 10 to 200 nM
• N#Cc1ccc(-n2ccc(=O)c(-c3ccnn3-c3ccccc3)n2)cc1 = 10 to 200 nM
• O=c1ccn(-c2ccccc2Cl)nc1-c1ccnn1-c1ccccc1 = 10 to 200 nM
• O=c1ccn(-c2cccc(C(F)(F)F)c2)nc1-c1ccnn1-c1ccccc1 = 10 to 200 nM
• O=c1ccn(-c2cccc(S(=O)(=O)c3nc4ccccc4[nH]3)c2)nc1-c1ccnn1-c1ccccc1 = < 10 nM
• O=c1ccn(-c2ccccc2F)nc1-c1ccnn1-c1ccccc1 = 10 to 200 nM
• O=c1c(OC(F)F)cn(-c2ccccc2F)nc1-c1ccnn1-c1ccccc1 = 10 to 200 nM
• COc1cn(-c2ccc(N3CCOCC3)cc2F)nc(-c2ccnn2-c2ccccc2)c1=O = < 10 nM
• CCOc1cn(-c2cccc(C(F)(F)F)c2)nc(-c2ccnn2-c2ccccc2)c1=O = 10 to 200 nM
• O=c1ccn(-c2ccc(S(=O)(=O)N3CCOCC3)cc2)nc1-c1ccnn1-c1ccccc1 = < 10 nM
• O=c1ccn(-c2ccccc2OC(F)F)nc1-c1ccnn1-c1ccccc1 = 10 to 200 nM
• O=c1ccn(-c2cccc(F)c2)nc1-c1ccnn1-c1ccccc1 = 10 to 200 nM
• COc1cn(-c2ccccc2F)nc(-c2ccnn2-c2ccccc2)c1=O = < 10 nM

----------
Assay endpoint: melting point

* COc1cn(-c2ccc(I)cc2F)nc(-c2ccnn2-c2ccccc2)c1=O | 194 to 196 °C
* Cn1cnc(-c2ccccc2)c1-c1nn(-c2cccc(C(F)(F)F)c2)ccc1=O | 214 to 216 °C
* O=c1ccn(-c2ccc(F)cc2)nc1-c1ccnn1-c1ccccc1 | 252 to 253 °C
* O=c1c(O)cn(-c2cccc(C(F)(F)F)c2)nc1-c1ccnn1-c1ccccc1 | 246 to 248 °C
* O=c1ccn(-c2cccc(C(F)(F)F)c2)nc1-n1ccnc1-c1ccccc1 | 204 to 205 °C
* COc1cn(-c2cc(N3CCCC3=O)ccc2F)nc(-c2ccnn2-c2ccccc2)c1=O | 171 to 174 °C
* O=c1ccn(-c2ccc(C(F)(F)F)cc2)nc1-c1ccnn1-c1ccccc1 | 237 to 238 °C
* Cc1cc(-c2nn(-c3cccc(C(F)(F)F)c3)ccc2=O)n(-c2ccccc2)n1 | 167 to 168 °C
* COc1cn(-c2ccc(N3CC4(CC4)OC3=O)cc2F)nc(-c2ccnn2-c2ccccc2)c1=O | 200 to 201 °C

----------
Assay endpoint: melting point

- O=c1ccn(-c2ccc(Cl)cc2)nc1-c1ccnn1-c1ccccc1 [Example 18]: 219 to 220 °C
- Cn1ncc(-c2nn(-c3cccc(C(F)(F)F)c3)ccc2=O)c1-c1ccccc1 [Example 75]: 193 to 195 °C
- COc1ccc(-n2nccc2-c2nn(-c3cccc(C(F)(F)F)c3)ccc2=O)cc1 [Example 4]: 173 to 174 °C
- CC(C)Oc1cn(-c2cccc(C(F)(F)F)c2)nc(-c2ccnn2-c2ccccc2)c1=O [Example 60]: 137 to 139 °C
- COc1cn(-c2cccnc2)nc(-c2ccnn2-c2ccccc2)c1=O [Example 173]: 210 to 212 °C
- O=c1c(OCC2CC2)cn(-c2cccc(C(F)(F)F)c2)nc1-c1ccnn1-c1ccccc1 [Example 61]: 72 to 78 °C
- O=c1ccn(-c2ccc(OC(F)F)cc2)nc1-c1ccnn1-c1ccccc1 [Example 28]: 175 to 176 °C
- Cc1nnc(-c2nn(-c3cccc(C(F)(F)F)c3)ccc2=O)n1-c1ccccc1 [Example 41]: 191 to 192 °C
- COc1cn(-c2cccc3c2OC(F)(F)O3)nc(-c2ccnn2-c2ccccc2)c1=O [Example 90]: 181 to 183 °C
- CC(C)n1ncc(-c2nn(-c3cccc(C(F)(F)F)c3)ccc2=O)c1-c1ccccc1 [Example 78]: 183 to 186 °C
- O=c1cc(O)n(-c2cccc(C(F)(F)F)c2)nc1-c1ccnn1-c1ccccc1 [Example 69]: 241 to 243 °C
- O=c1ccn(-c2cccc(C(F)(F)F)c2)nc1-c1conc1-c1ccccc1 [Example 79]: 217 to 219 °C
- COc1cn(-c2ccncc2)nc(-c2ccnn2-c2ccccc2)c1=O [Example 87]: 195 to 197 °C
- COc1ccccc1-n1nccc1-c1nn(-c2cccc(C(F)(F)F)c2)ccc1=O [Example 9]: 146 to 147 °C
- O=c1ccn(-c2cccc(C(F)(F)F)c2)nc1-c1nncn1-c1ccccc1 [Example 40]: 103 to 104 °C
- O=c1ccn(-c2ccccc2)nc1-c1ccnn1-c1ccccc1 [Example 24]: 179 to 180 °C
- Cc1ccccc1-n1nccc1-c1nn(-c2cccc(C(F)(F)F)c2)ccc1=O [Example 7]: 126 to 127 °C
- COc1cn(-c2ccc(OCc3ccccc3)cc2F)nc(-c2ccnn2-c2ccccc2)c1=O [Example 68]: 181 to 183 °C
- Cc1cnn(-c2ccccc2)c1-c1nn(-c2cccc(C(F)(F)F)c2)ccc1=O [Example 71]: 208 to 211 °C
- Cc1cccc(-n2nccc2-c2nn(-c3cccc(C(F)(F)F)c3)ccc2=O)c1 [Example 5]: 142 to 143 °C
- COc1cn(-c2cc3c(cc2F)OC(F)(F)C(F)(F)O3)nc(-c2ccnn2-c2ccccc2)c1=O [Example 96]: 192 to 194 °C
- O=c1ccn(-c2ccccc2Cl)nc1-c1ccnn1-c1ccccc1 [Example 32]: 138 to 139 °C
- Cc1cn(-c2cccc(C(F)(F)F)c2)nc(-c2ccnn2-c2ccccc2)c1=O [Example 50]: 147 to 150 °C

Values were extracted from patent US8513251B2.
